test system: UO-31 renal; assay: NCI-60 one-dose screen, 48 h (100 = growth as untreated, 0 = no growth, -100 = all killed); conditions: 10 µM unless noted
This is part of a sample that, as a whole, favours compounds with a hit. Of some 83,000 tested, about 20% had one in any assay.
quantity_kind: growth (%)

* O=C1c2cccnc2C(=O)c2c1c(C(=O)NCCCN1CCCCC1)c1ccccn21 | -34.5
* O=S(=O)(NCCCNc1nccc(-c2c(-c3ccc(F)c(O)c3)nc3occn23)n1)c1ccccc1 | 75
* C=C(C)[C@@H]1CC[C@]2(C)[C@H](CC=C3[C@@H]4[C@H](C)[C@@H](C)CC[C@]4(CO)CC[C@]32C)[C@@]1(C)CCCN | 34.1
* Cc1nc2c(=O)[nH]c(SCC(=O)Nc3cccc(F)c3)nc2[nH]c1=O | 84
* COc1cc(CNC(=O)/C=C/C=C/c2ccc3c(c2)OCO3)ccc1OCc1cn(-c2ccc(C)c(C)c2)nn1 | 99.8
* COCCNC(=O)c1ccc(-c2nc3ccc4[nH]ncc4c3c3c2CCCC3)cc1 | 8.86
* O=C1/C(=C\c2cn(-c3ccccc3)nc2-c2ccc(-c3cccs3)cc2)CCc2ccccc21 | 54.2
* O=C(O)/C(=C\c1ccc(Cl)cc1)c1ccc(Cl)cc1 | 77.7
* N#Cc1cnc(NCCc2ccncc2)nc1-n1cnc2ccccc21 | 33.3

Origin of the recorded values: PubChem BioAssay (NCI)
